The origin of these recorded values is paper PMC4336329.

Molecular target: human ether-à-go-go-related gene (hERG) potassium channel (human)
Test: primary screen, population patch clamp on CHO cells stably expressing hERG; higher = less effect of the substance
In all, about 310,000 compounds went through this assay and about 14,000 (4.5%) showed an effect of 50% or more. The effect is printed as a negative number. What follows is part of a selection rich in strong results, with near analogues and random picks from the rest.
hERG current change (%, negative = inhibition) at 10uM below -20% gives F; hERG current change (%, negative = inhibition) at 10uM at or above it gives T.

Would you please look over these solved cases?
INSERT INTO assay_data (molecule, assayed_target, category) VALUES
  ('Cc1ccc(OCC(=O)Nc2ccc(N3CCN(C(=O)c4ccco4)CC3)cc2)cc1', 'human ether-à-go-go-related gene (hERG) potassium channel (human)', 'F'),
  ('CCC(C)(C(=O)Nc1c(C)cccc1C)N(C)C(=O)c1ccc2ccccc2n1 (centres unmarked)', 'human ether-à-go-go-related gene (hERG) potassium channel (human)', 'T'),
  ('COc1ccc(/C=N/NC(=O)c2ccoc2C)cc1O', 'human ether-à-go-go-related gene (hERG) potassium channel (human)', 'T'),
  ('O=c1cc2c(nn1Cc1ccc(Cl)cc1)-c1ccccc1CC2', 'human ether-à-go-go-related gene (hERG) potassium channel (human)', 'T'),
  ('O=c1cc2c(nn1Cc1ccccc1)-c1ccccc1CC2', 'human ether-à-go-go-related gene (hERG) potassium channel (human)', 'T'),
  ('CCOCCCNC(=O)c1cc(-c2ccc(Br)s2)nc2ccccc12', 'human ether-à-go-go-related gene (hERG) potassium channel (human)', 'T');

Identify whether the reported hERG current change (%, negative = inhibition) at 10uM of the following molecule is -20% or greater: `O=C(CCc1nnc2ccc(N3CCC4(CC3)OCCO4)nn12)N1CCCCC1`
T

Identify whether the reported hERG current change (%, negative = inhibition) at 10uM of the following molecule is -20% or greater: `O=C(OCC(=O)N1CCc2ccccc2C1)c1ccc(Cl)c([N+](=O)[O-])c1`
F

* * *

Molecular target: human ether-à-go-go-related gene (hERG) potassium channel (human)
Assay: primary screen, population patch clamp on CHO cells stably expressing hERG; higher = less effect of the substance
The campaign covered roughly 310,000 compounds. About 14,000 (4.5%) showed an effect of 50% or more. Effects have a minus sign here. The sample holds strong results, similar compounds and a random draw of the others, so the mix is not that of the screen.
EXPERIMENTAL ENDPOINT: hERG current change (%, negative = inhibition) at 10uM (%)
Give bare numbers, in %.

Answer for every listed entry: what is its hERG current change (%, negative = inhibition) at 10uM? The entries follow.
1. Cc1ccccc1NC(=S)Nc1ccc(Br)cc1
2. CCOc1ccccc1CNC(=O)c1ccc(NC(=O)C2=CSCCO2)cc1
3. CCN(C(=O)c1ccc(C)c(Br)c1)c1ccccc1
4. CCOC(=O)c1sc(Nc2ccc(Br)cc2)nc1C
5. Cc1ccc(C(=O)N/C(=C/c2ccccc2)C(=O)NCc2ccncc2)cc1
6. O=C(CNC(=O)c1cccs1)N/N=C/c1cccc(Cl)c1
7. COC(=O)/C(=C1/Oc2ccc(C)cc2S1)C(F)(F)F
8. CCOC(=O)c1cccc(NC(=O)c2ccc(F)cc2F)c1

1: -6.93; 2: 7.72; 3: -20.5; 4: 13.7; 5: -65.2; 6: -5.74; 7: 32.8; 8: -16.1

Answer for every listed entry: what is its hERG current change (%, negative = inhibition) at 10uM? The entries follow.
1. Nc1cccc(S(=O)(=O)Nc2ccccc2)c1
2. Cc1ccc(C(=O)N/C(=C/c2ccccc2)C(=O)NCC2CCCO2)cc1 (stereo not shown)

1: 25.5; 2: -21.7

* * *

Biological target: human ether-à-go-go-related gene (hERG) potassium channel (human, UniProt Q12809);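 note: peak tail current of the secondary pulse compared with the same well before compound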
Sequence (Q12809 whole entry, looked up): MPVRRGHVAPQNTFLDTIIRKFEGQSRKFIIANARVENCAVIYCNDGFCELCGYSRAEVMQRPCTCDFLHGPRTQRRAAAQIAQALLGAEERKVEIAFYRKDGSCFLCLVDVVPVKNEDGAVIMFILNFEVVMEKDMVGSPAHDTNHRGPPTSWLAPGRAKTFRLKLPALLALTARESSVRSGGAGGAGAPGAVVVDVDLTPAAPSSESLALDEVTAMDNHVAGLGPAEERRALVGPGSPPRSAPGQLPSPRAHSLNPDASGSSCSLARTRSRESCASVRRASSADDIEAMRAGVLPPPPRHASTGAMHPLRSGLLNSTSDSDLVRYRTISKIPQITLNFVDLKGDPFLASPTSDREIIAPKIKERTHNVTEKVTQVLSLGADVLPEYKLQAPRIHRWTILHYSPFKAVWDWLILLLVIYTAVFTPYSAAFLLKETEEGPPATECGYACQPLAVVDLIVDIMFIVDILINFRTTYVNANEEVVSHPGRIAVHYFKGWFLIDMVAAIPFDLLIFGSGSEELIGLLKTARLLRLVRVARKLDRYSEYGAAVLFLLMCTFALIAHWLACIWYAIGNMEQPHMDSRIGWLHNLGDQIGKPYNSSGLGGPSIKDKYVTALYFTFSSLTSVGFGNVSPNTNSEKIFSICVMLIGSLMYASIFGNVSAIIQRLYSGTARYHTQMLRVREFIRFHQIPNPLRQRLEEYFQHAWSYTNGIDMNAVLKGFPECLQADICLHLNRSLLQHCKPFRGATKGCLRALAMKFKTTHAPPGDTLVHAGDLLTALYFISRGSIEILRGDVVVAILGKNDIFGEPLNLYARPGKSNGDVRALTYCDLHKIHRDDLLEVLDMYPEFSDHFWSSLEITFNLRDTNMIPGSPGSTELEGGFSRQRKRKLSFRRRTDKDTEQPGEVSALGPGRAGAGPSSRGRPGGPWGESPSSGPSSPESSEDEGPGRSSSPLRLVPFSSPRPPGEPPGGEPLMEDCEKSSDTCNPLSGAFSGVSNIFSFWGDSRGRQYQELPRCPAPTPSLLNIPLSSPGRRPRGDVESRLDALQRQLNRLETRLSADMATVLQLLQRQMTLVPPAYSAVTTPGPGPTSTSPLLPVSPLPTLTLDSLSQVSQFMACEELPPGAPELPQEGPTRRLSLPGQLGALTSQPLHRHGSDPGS
Assay: primary screen, population patch clamp on CHO cells stably expressing hERG; higher = less effect of the substance
Among all 310,000 compounds or so, about 14,000 (4.5%) showed an effect of 50% or more. The effect is printed as a negative number. This excerpt belongs to a sample that is enriched for strong results.
The recorded hERG current change (%, negative = inhibition) at 10uM of each item maps onto one of these classes: class A (below -30%), class B (-30% to below -10%), class C (-10% or more)

Would you please look over these solved cases?
INSERT INTO measurements (compound, category) VALUES
  ('O=C(CCC1CCCC1)N1CCC(N2CCN(c3ccccc3)CC2)CC1', 'class A'),
  ('COC(=O)C1(CC2CC(c3ccccc3)=NO2)CCN(C(=O)OC(C)(C)C)CC1 (centres unmarked)', 'class B'),
  ('O=C(O)C(=O)O.O=C(c1cccs1)N1CCN(CCCc2ccccc2)CC1', 'class A'),
  ('CCOc1ccc(NC(=O)CN(C)C(=O)Cc2ccsc2)cc1OCC', 'class B'),
  ('COc1ccc(NC(=O)CSc2nnc3n2CCCCC3)cc1', 'class C'),
  ('COc1ccc(CNC(=O)C2(CC3CC(c4ccccc4)=NO3)CCN(C(=O)C3(C)CC3)CC2)cc1 (centres unmarked)', 'class A'),
  ('O=C(Nc1ccc(Br)cc1)c1cnccn1', 'class C'),
  ('CCN(CC)S(=O)(=O)c1ccc2c3c(cccc13)C(=O)S2', 'class B'),
  ('COc1ccc(/C=C/C(=O)c2ccccc2O)cc1CN1CCOCC1', 'class B'),
  ('Cc1ccc(NC(=O)C(C)SCc2nc3sc(C)c(C)c3c(=O)[nH]2)nc1 (centres unmarked)', 'class B');

Assign a category based on measured hERG current change (%, negative = inhibition) at 10uM for Cc1cccc(C)c1NC(=O)C1c2cccc[n+]2CC(=O)N1Cc1cccs1.[I-] (centres unmarked) and give only the class name.
class C

Assign a category based on measured hERG current change (%, negative = inhibition) at 10uM for `O=C(O)C(=O)O.O=C(c1cccs1)N1CCN(C2CCCCC2)CC1` and give only the class name.
class A

* * *

Target: human ether-à-go-go-related gene (hERG) potassium channel (human);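 note: peak tail current of the secondary pulse compared with the same well before compound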
Assay: primary screen, population patch clamp on CHO cells stably expressing hERG; higher = less effect of the substance
In all, about 310,000 compounds went through this assay and about 14,000 (4.5%) showed an effect of 50% or more. Effects have a minus sign here. The entries come from a sample that favours strong results as a whole.
Task for the reader: assign each of the following compounds its reported hERG current change (%, negative = inhibition) at 10uM.
Give bare numbers, in %.

INSERT INTO measurements (compound, assayed_target, value_unit, experimental_value) VALUES
  ('Cc1ccc(N(C(=O)c2cccs2)C2C=CS(=O)(=O)C2)cc1 (stereo not drawn)', 'human ether-à-go-go-related gene (hERG) potassium channel (human)', '%', -24.4),
  ('Cn1c(=S)[nH]c2c(c1=O)C(C)(C)Cc1ccccc1-2', 'human ether-à-go-go-related gene (hERG) potassium channel (human)', '%', 10.9);

Let's switch to this compound now.
API: value(readout= hERG current change (%, negative = inhibition) at 10uM, system= human ether-à-go-go-related gene (hERG) potassium channel (human), query= `COc1ccc(S(=O)(=O)N2CCC(C(=O)c3ccc4c(c3)OCCO4)CC2)cc1` );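 note: peak tail current of the secondary pulse compared with the same well before compound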
-6.76

* * *

Biological target: human ether-à-go-go-related gene (hERG) potassium channel (human, UniProt Q12809);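 note: peak tail current of the secondary pulse compared with the same well before compound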
Assay: primary screen, population patch clamp on CHO cells stably expressing hERG; higher = less effect of the substance
The campaign covered roughly 310,000 compounds. About 14,000 (4.5%) showed an effect of 50% or more. Effects have a minus sign here. This is one part of a sample in which strong results are shown more often than they occur.
hERG current change (%, negative = inhibition) at 10uM below -10% gives false (0); hERG current change (%, negative = inhibition) at 10uM at or above it gives true (1).

Would you please look over these solved cases?
INSERT INTO results (compound, assayed_target, category) VALUES
  ('COc1cc(OC)cc(-c2oc(=O)c3cc(OC)c(OC)cc3c2/C=C/c2ccc(F)cc2)c1', 'human ether-à-go-go-related gene (hERG) potassium channel (human, UniProt Q12809)', 'true (1)'),
  ('CC(=O)c1cccc(CN2CCC(CO)(CCCc3ccccc3)CC2)c1', 'human ether-à-go-go-related gene (hERG) potassium channel (human, UniProt Q12809)', 'false (0)'),
  ('O=C(CN1CCC(C(=O)c2ccc(Cl)cc2)CC1)Nc1ccc2c(c1)OCCO2', 'human ether-à-go-go-related gene (hERG) potassium channel (human, UniProt Q12809)', 'false (0)'),
  ('CCCN1CCC(=O)N([C@H](CO)CC(C)C)CC1', 'human ether-à-go-go-related gene (hERG) potassium channel (human, UniProt Q12809)', 'true (1)'),
  ('NS(=O)(=O)c1ccc(CCNC(=O)c2cccc([N+](=O)[O-])c2)cc1', 'human ether-à-go-go-related gene (hERG) potassium channel (human, UniProt Q12809)', 'true (1)'),
  ('CCCN1CCC(=O)N(CCO)CC1', 'human ether-à-go-go-related gene (hERG) potassium channel (human, UniProt Q12809)', 'true (1)');

Could you now consider this next compound?
Identify whether the reported hERG current change (%, negative = inhibition) at 10uM of the following compound is -10% or greater: `CCCCCCCN1CCC(=O)N([C@H](CO)CC(C)C)CC1`
false (0)
